Values from the NIST ThermoML archive (doi:10.1021/je025649t)

- ASSAY_DETAILS: excess molar enthalpy (molar enthalpy of mixing); xn = mol fraction of the nth substance listed
- MEASUREMENT_SETUP: 298.15 K; 101 kPa; Liquid; Flow calorimetry; x2 = 0.2
MEASUREMENT_LABEL: excess molar enthalpy (kcal/mol)
Give the value in kcal/mol but do not write kcal/mol after it.

Solved entries (count: 3):
>  <COMPOUND>
CCCCCC(C)=O [2-heptanone] + C1CCOCC1

>  <MEASUREMENT_LABEL>
excess molar enthalpy

>  <REPORTED_RESULT>
0.00696

$$$$
>  <COMPOUND>
CCCC(C)=O [pentan-2-one] + C1CCOCC1

>  <MEASUREMENT_LABEL>
excess molar enthalpy

>  <REPORTED_RESULT>
0.0119

$$$$
>  <COMPOUND>
O=C1CCCCC1 [cyclohexanone] + C1CCOCC1

>  <MEASUREMENT_LABEL>
excess molar enthalpy

>  <REPORTED_RESULT>
0.0117

$$$$

Inquiry: Item O=C1CCCC1 [cyclopentanone] + C1CCOCC1 has what recorded excess molar enthalpy?
Reply text: 0.023
